Reported yeast fitness by item:
B1: tRNA (parent)
chain: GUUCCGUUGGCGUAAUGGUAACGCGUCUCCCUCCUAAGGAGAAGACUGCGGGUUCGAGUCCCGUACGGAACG

Variants of: B1
experimentDescription: yeast fitness relative to wild type (ratio to wild type); higher = fitter; tRNA-Arg(CCU), competitive growth, 37 C, YPD
Fewer inactive variants are shown than the library holds.

>>> df
                            residuesequence  endpointvalue
0  GUUCGGUUGGCGUACUGGUAACGCGUCUCCCCCCUAAGGAGAAGAUUGCGGGGUCGAGUCCCGUACGGAACG [C5G A15C U32C C46U U53G]          ≤ 0.5

Enquiry: Reported yeast fitness, variant GUUCCGUUGGCGUAAUGGUAACGCGUCUGCCUUCUAAGGAGAAGACUGCGGGUUCGAGUCUCGUACGGCACG [C29G C33U C61U A69C] : ____
Return: ≤ 0.5

Enquiry: Reported yeast fitness, variant GUCGCGUUGGCGUAAUGGUAACGCGUCUCCCUCCUAAGGAGAAGACUGCGGGUUCGAGUCCCGUAGGGAACG [U3C C4G C66G] : ____
Return: ≤ 0.5

Source listed as the RNAGym collection of RNA variant scans (doi:10.1126/science.aae0568).
